tested target: T1, full-length recombinant human PAD4 (human, UniProt Q9UM07 1-663)
T1 construct: Full-length recombinant; also called peptidylarginine deiminase 4
T1 sequence (Q9UM07 whole entry): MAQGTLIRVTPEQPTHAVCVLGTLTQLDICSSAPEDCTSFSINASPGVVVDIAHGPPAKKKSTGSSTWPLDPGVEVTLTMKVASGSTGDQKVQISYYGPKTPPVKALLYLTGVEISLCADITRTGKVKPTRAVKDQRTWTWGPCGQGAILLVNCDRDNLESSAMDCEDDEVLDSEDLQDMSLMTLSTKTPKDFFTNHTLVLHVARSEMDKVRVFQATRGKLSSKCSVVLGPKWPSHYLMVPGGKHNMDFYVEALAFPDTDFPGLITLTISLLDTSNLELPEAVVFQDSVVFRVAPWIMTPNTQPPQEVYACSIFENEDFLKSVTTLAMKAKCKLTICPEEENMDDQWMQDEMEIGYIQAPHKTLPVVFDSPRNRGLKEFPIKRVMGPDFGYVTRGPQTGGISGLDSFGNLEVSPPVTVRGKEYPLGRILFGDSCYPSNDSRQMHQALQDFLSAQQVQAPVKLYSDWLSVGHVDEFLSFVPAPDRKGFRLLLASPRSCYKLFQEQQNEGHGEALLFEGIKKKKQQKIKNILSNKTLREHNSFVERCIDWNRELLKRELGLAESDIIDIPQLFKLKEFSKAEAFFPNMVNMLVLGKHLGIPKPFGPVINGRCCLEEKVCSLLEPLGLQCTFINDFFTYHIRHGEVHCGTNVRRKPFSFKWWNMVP
procedure details: ELISA, coated human PAD4; antibody 0.015625 ug/mL
readout name: OD 490/630 nm
The response must contain the number and no unit.

# binder, OD 490/630 nm
records = [
    ("A11 (antibody, V domains shown, Chicken variable regions in a mouse chimeric antibody (IgG1); also called anti-PAD4 antibody A11) VH: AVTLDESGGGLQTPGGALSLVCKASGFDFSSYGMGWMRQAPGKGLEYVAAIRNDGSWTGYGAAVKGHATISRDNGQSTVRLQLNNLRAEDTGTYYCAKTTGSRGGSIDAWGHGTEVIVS VL: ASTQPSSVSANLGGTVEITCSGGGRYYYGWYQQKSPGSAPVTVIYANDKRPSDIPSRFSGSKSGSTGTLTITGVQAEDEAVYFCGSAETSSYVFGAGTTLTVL", 2.08),
]

Alright, here's another binder for you.
Task: Supply measured OD 490/630 nm of G9 (antibody, V domains shown, Chicken variable regions in a mouse chimeric antibody (IgG1); also called anti-PAD4 antibody G9) VH: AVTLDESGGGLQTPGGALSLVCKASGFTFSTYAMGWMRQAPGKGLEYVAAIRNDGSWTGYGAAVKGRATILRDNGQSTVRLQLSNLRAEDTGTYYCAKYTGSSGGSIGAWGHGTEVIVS VL: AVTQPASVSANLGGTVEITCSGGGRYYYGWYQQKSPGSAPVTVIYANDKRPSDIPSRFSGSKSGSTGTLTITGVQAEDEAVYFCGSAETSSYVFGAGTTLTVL in your reply.
Output: 2.07
